This collection of values is drawn from patent US5354862A.

Could you please report measured MIC for the items listed next?
# System: Escherichia coli
# assay explanation: Broth two-fold serial dilution MIC test
# Assay type: cell-based, Escherichia coli (ATCC 11229)
# condition details: Table 2; Ecol; M9G media
Numbers only, in ppm.

Worked cases, MIC given:
[[record]]
molecule = "CCCCCCCCCCCCCCCC[N+]1(CC#CI)CCCC1 [Compound 80]"
numeric_value = 2

[[record]]
molecule = "CCCCCCCCCCCCCCCC[N+]1(CC#CI)CCCCC1 [Compound 60]"
numeric_value = 2

[[record]]
molecule = "IC#CC[N+]1(Cc2ccccc2)CCOCC1 [Compound 74]"
numeric_value = 64


Report MIC for every entry below.
1. CCCC[N+]1(CC#CI)CCCC1 [Compound 9]
2. CCCCCCCCCCCCCC[N+]1(CC#CI)CCOCC1 [Compound 28]
3. CCCCCCCCCCCCCCCC[N+]1(CC#CI)CC(C)OC(C)C1 (stereo not drawn) [Compound 47]

1. 500
2. 1
3. 2

* * *

# Test system: Pseudomonas aeruginosa
# assay explanation: Broth two-fold serial dilution MIC test
# Format: cell-based, Pseudomonas aeruginosa (ATCC 15442)
# condition details: Table 2; Psae; M9G media
Rule: MIC below 30 ppm gives y, anything at or above gives n.

[[record]]
molecule = "CCCCCCCCCCCCCC[N+]1(CC#CI)CCCCC1 [Compound 62]"
qualitative_label = "y"


Regarding CCCCCCCCCCCCCC[N+]1(CC#CI)CCCCC1C (stereo not drawn) [Compound 54] , kindly confirm whether its MIC is beneath 30 ppm.
n

Regarding CCCCCCCCCCCCCCCC[N+]1(CC#CI)CCCC1 [Compound 80] , kindly confirm whether its MIC is beneath 30 ppm.
y

Regarding CCCCCCCCCCOC(=O)C[N+]1(CC#CI)CCCC1 [Compound 70] , kindly confirm whether its MIC is beneath 30 ppm.
n

Regarding CCCCCCCCCCCCCCC[N+]1(CC#CI)CCCC1 [Compound 10] , kindly confirm whether its MIC is beneath 30 ppm.
y

Regarding CCCCCCCCCCCCC[N+]1(CC#CI)CCCC1 [Compound 31] , kindly confirm whether its MIC is beneath 30 ppm.
n

Regarding CCCCCCCCCCCCOC(=O)C[N+]1(CC#CI)CCCC1 [Compound 64] , kindly confirm whether its MIC is beneath 30 ppm.
n

* * *

# Test system: Pseudomonas aeruginosa
# assay explanation: Broth two-fold serial dilution MIC test
# Assay type: cell-based, Pseudomonas aeruginosa (ATCC 15442)
# condition details: Table 2; Psae; TSB media
# Source text: A minimum inhibitory concentration (MIC) value is obtained using a broth, two-fold serial dilution test performed as follows: A stock solution or dispersion of the test compound, typically at a concentration of 1%, is made in a 5:3:2 solvent solution of acetone. methanol, and water. […] When the test is ready to be done, each vessel in the dilution series, except the first vessel, contains an equal volume of compound free broth. […]
Could you please report measured MIC for the items listed next?
Answers are plain numbers, in ppm.

[[record]]
compound = "CCCCCCCCCCCCCCCC[N+]1(CC#CI)CCCCC1 [Compound 61]"
numeric_value = 125

[[record]]
compound = "CCCCCCCCCCCCCC[N+]1(CC#CI)CCOCC1 [Compound 72]"
numeric_value = 64

[[record]]
compound = "CCCCCCCCCCCC[N+]1(CC#CI)CCCC1 [Compound 37]"
numeric_value = 125

[[record]]
compound = "CCCCCCCCCCCCCC[N+]1(CC#CI)CCCCC1C (centres unmarked) [Compound 55]"
numeric_value = 125

[[record]]
compound = "CCCCCCCCCCCCCC[N+]1(CC#CI)CCCCC1C (centres unmarked) [Compound 51]"
numeric_value = 16

[[record]]
compound = "CCCCCCCCCCOC(=O)C[N+]1(CC#CI)CCOCC1"
numeric_value = 250


Report MIC for every entry below.
1. CCCCCCCCCCCCC[N+]1(CC#CI)CCCC1 [Compound 36]
2. CCCCCCCCCCCCCC[N+]1(CC#CI)CCCCC1 [Compound 85]
3. CCCCCCCCCCCCCCCC[N+]1(CC#CI)CCCC1 [Compound 32]

63
32
125

* * *

# Tested on: Pseudomonas aeruginosa
# assay explanation: Broth two-fold serial dilution MIC test
# Assay type: cell-based, Pseudomonas aeruginosa (ATCC 15442)
# condition details: Table 2; Psae; M9G media
# Text: A minimum inhibitory concentration (MIC) value is obtained using a broth, two-fold serial dilution test performed as follows: A stock solution or dispersion of the test compound, typically at a concentration of 1%, is made in a 5:3:2 solvent solution of acetone. methanol, and water. […] When the test is ready to be done, each vessel in the dilution series, except the first vessel, contains an equal volume of compound free broth. […]
Could you please report measured MIC for the items listed next?
Give bare numbers, in ppm.

Worked cases, MIC given:
[[record]]
compound = "CCCCCCCCCCOC(=O)CC[N+]1(CC#CI)CCOCC1"
unit_abbrev = "ppm"
numeric_value = 500

[[record]]
compound = "CCCCCCCCCCCCCCCC[N+]1(CC#CI)CCCCC1 [Compound 60]"
unit_abbrev = "ppm"
numeric_value = 63

[[record]]
compound = "CCCCCCCCCCCCCC[N+]1(CC#CI)CCCC1 [Compound 87]"
unit_abbrev = "ppm"
numeric_value = 16


Report MIC for every entry below.
1. CCCCCCCCCCOC(=O)CC[N+]1(CC#CI)CCCC1
2. CCCCCCCCCCCCCCCC[N+]1(CC#CI)CC(C)OC(C)C1 (stereo not drawn) [Compound 47]
3. CCCCCCCCCCCCCCCC[N+]1(CC#CI)CCCC1 [Compound 7]
4. CCCCCCCCCCCCCC[N+]1(CC#CI)CCCCC1C (stereo not drawn) [Compound 51]
5. CCCCCCCCCCCCCC[N+]1(CC#CI)CCCC1 [Compound 69]
6. CCCCCCCCCCCC[N+]1(CC#CI)CCCC1 [Compound 79]

500
8
4
16
8
32

* * *

Could you please report measured log10(MIC) for the items listed next?
# System: Escherichia coli
# assay explanation: Broth two-fold serial dilution MIC test
# Type: cell-based, Escherichia coli (ATCC 11229)
# condition details: Table 2; Ecol; M9G media
Record value = log10 of MIC given in ppm.

Worked cases, log10(MIC) given:
[[record]]
molecule = "CCCCCCCCCCCCCC[N+]1(CC#CI)CCCC1 [Compound 6]"
system_name = "Escherichia coli"
numeric_value = 0.60

[[record]]
molecule = "CCCCCCCCCCCCCCCC[N+]1(CC#CI)CCCC1 [Compound 35]"
system_name = "Escherichia coli"
numeric_value = 0.60

[[record]]
molecule = "CCCCCCCCCCCCOC(=O)C[N+]1(CC#CI)CCCC1 [Compound 75]"
system_name = "Escherichia coli"
numeric_value = 0.30


Report log10(MIC) for every entry below.
1. CCCCCCCCCCCCC[N+]1(CC#CI)CCCC1 [Compound 36]
2. CCCCCCCCCCOC(=O)CC[N+]1(CC#CI)CCCC1 [Compound 98]

1: 0.30; 2: 1.20

Report log10(MIC) for every entry below.
1. CCCCCCCCCCOC(=O)C[N+]1(CC#CI)CCOCC1 [Compound 67]
2. CCCCCCCCCCCCCC[N+]1(CC#CI)CCCCC1 [Compound 59]
3. CCCC[N+]1(CC#CI)CCCC1 [Compound 77]
4. CCCCCCCCCCCCCC[N+]1(CC#CI)CCCCC1C (stereo not shown) [Compound 55]

1: 0.30; 2: 0.90; 3: 1.81; 4: 0.60

* * *

Could you please report measured MIC for the items listed next?
# Test system: Escherichia coli
# assay explanation: Broth two-fold serial dilution MIC test
# Format: cell-based, Escherichia coli (ATCC 11229)
# condition details: Table 2; Ecol; M9G media
Give bare numbers, in ppm.

[[record]]
compound = "CCCCCCCCCCCCC[N+]1(CC#CI)CCCC1 [Compound 31]"
system_name = "Escherichia coli"
unit_abbrev = "ppm"
numeric_value = 1

[[record]]
compound = "CCCCCCCCCCCCOC(=O)C[N+]1(CC#CI)CCOCC1 [Compound 76]"
system_name = "Escherichia coli"
unit_abbrev = "ppm"
numeric_value = 2


Report MIC for every entry below.
1. CCCCCCCCCCCCCC[N+]1(CC#CI)CCOCC1 [Compound 86]
2. CCCCCCCCCCCCCC[N+]1(CC#CI)CCCC1 [Compound 87]

[2, 2]

* * *

# Test system: Staphylococcus aureus
# assay explanation: Broth two-fold serial dilution MIC test
# Assay type: cell-based, Staphylococcus aureus (ATCC 6538)
# condition details: Staphylococcus aureus, Table 2; Saur; TSB media; read-out: MIC
Could you please report measured MIC for the items listed next?

Worked cases, MIC given:
[[record]]
molecule = "CCCCCCCCCCCCC[N+]1(CC#CI)CCOCC1 [Compound 89]"
observable = "MIC"
result = "2 mg/L"

[[record]]
molecule = "CCCCCCCC[N+]1(CC#CI)CCOCC1 [Compound 92]"
observable = "MIC"
result = "16 mg/L"

[[record]]
molecule = "CCCCCCCCCCCCCCCC[N+]1(CC#CI)CCCC1 [Compound 7]"
observable = "MIC"
result = "< 0.25 mg/L"

[[record]]
molecule = "OCCCCCCCCC[N+]1(CC#CI)CCCC1 [Compound 5]"
observable = "MIC"
result = "63 mg/L"

[[record]]
molecule = "OCC[N+]1(CC#CI)CCCCC1 [Compound 18]"
observable = "MIC"
result = "32 mg/L"


Report MIC for every entry below.
1. CCCC[N+]1(CC#CI)CCCC1 [Compound 9]
2. CCCCCCCCCCOC(=O)C[N+]1(CC#CI)CCCC1 [Compound 65]

1: 250 mg/L; 2: 1 mg/L

Report MIC for every entry below.
1. OCCCCCCC[N+]1(CC#CI)CCCC1 [Compound 4]
2. CC[N+]1(CC#CI)CCOCC1 [Compound 94]
3. OCC[N+]1(CC#CI)CCCC1 [Compound 1]
4. C[N+]1(CC#CI)CCOCC1 [Compound 29]
5. CCCCCCCCCCCCCC[N+]1(CC#CI)CC=CCC1 (centres unmarked) [Compound 53]

["500 mg/L", "> 500 mg/L", "32 mg/L", "500 mg/L", "< 0.25 mg/L"]
